Target: GLUT1 (Homo sapiens, UniProt P11166)
Assay: Indirect measurement of GLUT1 activity by quantification of intracellular ATP levels (glucose induced ATP increase)
Assay type: cell-based
Set-up: endogenous in cells; host or cells: DLD1 or CHO-K1
Details: read-out: IC50 regarding glucose induced ATP increase (GLUT1 inhibition)
pIC50: −log10 of the molar value.
Assign class by pIC50: not lower than 7 means True; lower than 7 means False.

1. Cc1nn(Cc2ccc(C(=O)NCc3ccncc3)cc2)c(C)c1NC(=O)c1cc(C(F)(F)F)nc2ccc(Br)cc12: True
2. Cc1c(NC(=O)c2cc(C(N)=O)nc3ccccc23)c(C(F)(F)F)nn1Cc1cccc(C(C)O)c1 (racemic): False
3. Cc1nn(CC2CCN(C(=O)OC(C)(C)C)CC2)c(C)c1NC(=O)c1cc(C(N)=O)nc2ccccc12 [Example 405]: False

Data request: Please indicate if the recorded pIC50 for Cc1nn(Cc2cccc(F)c2)c(C)c1NC(=O)c1cc(C(F)(F)F)nc2ccc(Br)cc12 meets or exceeds 7.
Data returned: False

Data request: Please answer likewise for COc1cccc(Cn2nc(C(F)(F)F)c(NC(=O)c3cc(C(N)=O)nc4cccc(F)c34)c2C)c1
Data returned: True

Data request: Subsequent entry: COc1cc(C(=O)Nc2c(C(F)(F)F)nn(Cc3ccc(C#N)cn3)c2C)c2ccccc2n1
Data returned: True

###

Target: GLUT1 (Homo sapiens)
Sequence (P11166 1-492): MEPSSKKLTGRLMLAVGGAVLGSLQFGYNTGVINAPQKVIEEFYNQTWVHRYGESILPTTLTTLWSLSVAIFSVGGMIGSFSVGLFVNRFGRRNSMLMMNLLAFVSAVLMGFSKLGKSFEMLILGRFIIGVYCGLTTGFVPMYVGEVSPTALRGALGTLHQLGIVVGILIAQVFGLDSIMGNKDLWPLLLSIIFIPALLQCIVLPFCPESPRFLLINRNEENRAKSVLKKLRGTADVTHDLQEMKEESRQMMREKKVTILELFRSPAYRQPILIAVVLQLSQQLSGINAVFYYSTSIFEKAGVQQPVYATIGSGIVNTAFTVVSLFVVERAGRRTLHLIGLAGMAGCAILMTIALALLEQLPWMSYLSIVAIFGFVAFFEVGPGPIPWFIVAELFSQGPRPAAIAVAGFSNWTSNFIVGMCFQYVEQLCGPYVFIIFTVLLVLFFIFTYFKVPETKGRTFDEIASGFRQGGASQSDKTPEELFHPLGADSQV
Test: Indirect measurement of GLUT1 activity by quantification of intracellular ATP levels (glucose induced ATP increase)
Assay type: cell-based
Set-up: endogenous in cells; host or cells: DLD1 or CHO-K1
Settings: read-out: IC50 regarding glucose induced ATP increase (GLUT1 inhibition)
pIC50: −log10 of the molar value.
Use pIC50 to assign classes; range list: bin A: < 7; bin B: ≥ 7 and < 8; bin C: ≥ 8

Known results for compounds:
1) Cc1nn(Cc2cccc(S(C)(=O)=O)c2)c(C)c1NC(=O)c1cc(C(N)=O)nc2cc(F)ccc12: bin A
2) COc1cc(C(=O)Nc2c(C)nn(CCOc3ccc(C#N)cc3)c2C)c2ccccc2n1: bin A
3) Cc1nn(Cc2ccc(C#N)cn2)c(C)c1NC(=O)c1cc(C(N)=O)nc2cc(F)c(F)cc12: bin C
4) Cc1nn(Cc2ccc(CC(=O)NCCN(C)C)cc2)c(C)c1NC(=O)c1cc(C(F)(F)F)nc2ccc(Br)cc12: bin A
5) Cc1c(NC(=O)c2cc(C(N)=O)nc3ccccc23)c(C(F)(F)F)nn1Cc1ccccc1C#N: bin C
6) Cc1nn(Cc2ccc(C#N)cc2)c(C(F)(F)F)c1NC(=O)c1cc(C(N)=O)nc2cc(F)ccc12: bin C
7) Cc1nn(Cc2ccc(C(=O)NCC3CCOCC3)cc2)c(C)c1NC(=O)c1cc(C(F)(F)F)nc2ccc(Br)cc12: bin A
8) Cc1nn(Cc2cc(F)ccc2F)c(C)c1NC(=O)c1cc(C(F)(F)F)nc2ccc(Br)cc12: bin A

Data request: Which bin should I file CCc1cc(Cn2nc(C(F)(F)F)c(NC(=O)c3cc(C(N)=O)nc4cc(F)ccc34)c2C)on1 under?
Data returned: bin B

Data request: Also need COc1cc(C(=O)Nc2c(C)nn(CCc3cccc(F)c3)c2C)c2ccccc2n1 , thanks.
Data returned: bin A

Data request: Entry Cc1nn(Cc2ccc(F)c(F)c2)c(C)c1NC(=O)c1cc(C(N)=O)nc2ccc(Br)cc12 please
Data returned: bin C

Data request: Likewise for Cc1nn(Cc2ccc(F)cc2)c(C)c1NC(=O)c1cc(C(F)(F)F)nc2cc(F)c(F)cc12 ?
Data returned: bin B
